tested on: SNB-75; assay: NCI tumour cell line growth inhibition, 48 h
Calls of active or inactive are those of the source. Rule as the data show it: active = GI50 up to about 1.1 µM and inactive = higher.
Observable: GI50

Compound	Result
Cc1ccc(-c2nc3ccccc3c(=O)n2NCC2(O)OCC(O)C(O)C2O)cc1 (centres undefined)	> 100 µM (inactive)
O=c1c2c3c(sc2nc2n1N=CN(c1ccc(Cl)cc1)C2)CCCC3	24.7 µM (inactive)
CS/C(=N\c1nccs1)NC(=O)c1cccc(Cl)c1	49.5 µM (inactive)
COc1ccc(-c2nnc3c4ccccc4sn23)cc1	10.2 µM (inactive)
CC(C)CCC1CC2C(=O)N(c3ccccc3)C(=O)C2c2[nH]c3ccccc3c21 (centres undefined)	2.22 µM (inactive)
Cc1nc2c(Cl)cc(Cl)cc2c(Cl)c1CCCl	42.9 µM (inactive)
CN1C[C@H]2[C@@H](C1=O)[C@H](c1ccccc1)ON2C	> 100 µM (inactive)
O=C(COc1ccc(OCC(=O)N2C(=O)CC(=O)N(c3ccc(Cl)cc3)C2=S)cc1)N1C(=O)CC(=O)N(c2ccc(Cl)cc2)C1=S	72.9 µM (inactive)
COC(=O)c1c(C)cccc1/C=C1\Cc2ccc(C)c(C)c2C1=O	40.6 µM (inactive)
N#CC1(C#N)C(c2ccccc2)C=CC12OCCCO2 (centres undefined)	42.9 µM (inactive)
CC(=O)OC(C(=O)NNC(=O)OC(C)(C)C)c1ccccc1 (centres undefined)	> 100 µM (inactive)
CN1CCN(c2ccc3nc(C4=C(O)C(=O)c5c(nc(CCl)n5C)C4=O)[nH]c3n2)CC1	3.72 µM (inactive)
COC(=O)C1CSC(c2csc(CCN)n2)=N1 (centres undefined)	> 100 µM (inactive)
O=C(Nc1ccc(C2=NCCN2)cc1)c1cncc(C(=O)Nc2ccc(C3=NCCN3)cc2)c1	> 31.6 µM (inactive)
